The reported numbers originate from the supplement of paper PMC6555819.

# System: THRa:RXRa (NR concentration 90 nM, RXRa partner concentration 90 nM)
# Assay name: PBM binding z-score (relative to random genomic background probes); higher = stronger binding; sequences stand for … in GC…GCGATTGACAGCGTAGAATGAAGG
# cutoff 3 applies to PBM binding z-score; >= gives 1, < gives -1

Lookup: Please check the record `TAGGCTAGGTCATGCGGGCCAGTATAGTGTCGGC` and state if its PBM binding z-score is at or above 3.
Found: -1

Lookup: Please check the record `GCATATAGGTAATACAAGGTGAAAGCCCGATTGT` and state if its PBM binding z-score is at or above 3.
Found: 1

Lookup: Please check the record `ATCTCTAGGTAAAAGGTCAGTGAATCCCGAGGAT` and state if its PBM binding z-score is at or above 3.
Found: 1

Lookup: Please check the record `AGTCAAAGTTCAGGACGCGGTAACGTAAAGCACG` and state if its PBM binding z-score is at or above 3.
Found: -1

Lookup: Please check the record `CGTCCAAGGTCAGAGAGGTGAGTGAATGCCGAGT` and state if its PBM binding z-score is at or above 3.
Found: 1

Lookup: Please check the record `ACTAGCAGGCCAAGGGTCACACAAGATTAGTCCG` and state if its PBM binding z-score is at or above 3.
Found: 1

Lookup: Please check the record `ATCTCTAGGTGACCAAGTTCAGTGAATGCCGAAC` and state if its PBM binding z-score is at or above 3.
Found: -1

Lookup: Please check the record `ACTATTAGTTGCGACGAGGGCAACCGATAGGTTG` and state if its PBM binding z-score is at or above 3.
Found: -1

Lookup: Please check the record `CGTCCAATGTCATAGGAGGTCAGTGAAGACAGAT` and state if its PBM binding z-score is at or above 3.
Found: 1

Lookup: Please check the record `TCGAGTAGGTTAGGGGCACTCAGAATGGCGTCGA` and state if its PBM binding z-score is at or above 3.
Found: -1

Lookup: Please check the record `CAAACTAGGTCAAGGTCAGAGTCGGTTTGTGCCA` and state if its PBM binding z-score is at or above 3.
Found: 1

* * *

Kindly state PBM binding z-score for each of the entries shown.
# Tested on: FXR:RXRa (NR concentration 270 nM, RXRa partner concentration 90 nM)
# Assay name: PBM binding z-score (relative to random genomic background probes); higher = stronger binding; sequences stand for … in GC…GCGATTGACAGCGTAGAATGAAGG
I'd appreciate a reply containing only the number, no unit.

Lookup: Which value of PBM binding z-score has been reported for `CGTCCAAGGTCAAGGTCAGTGACAGAGACTCGAA` in the records?
Found: 7.96

Lookup: Which value of PBM binding z-score has been reported for `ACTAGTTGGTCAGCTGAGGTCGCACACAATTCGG` in the records?
Found: 1.01

Lookup: Which value of PBM binding z-score has been reported for `ACGAGCAGGCCAAGTTTGGGTCACTCAAACAAAG` in the records?
Found: 0.0598

Lookup: Which value of PBM binding z-score has been reported for `CTCGAAAGGTCGGTTGTGGTGAGTATACGGATAA` in the records?
Found: 2.01

Lookup: Which value of PBM binding z-score has been reported for `CGTCCAAGGTCATAGGTGGTCAGTGAAGACAGAT` in the records?
Found: 7.11

Lookup: Which value of PBM binding z-score has been reported for `ATATGTAAGTTACATCCGGGTCATTCAGGCTATG` in the records?
Found: 1.87

Lookup: Which value of PBM binding z-score has been reported for `CGTCCAAGGTCAGCAGGTCAATGAAAGCGACGTG` in the records?
Found: 6.32

Lookup: Which value of PBM binding z-score has been reported for `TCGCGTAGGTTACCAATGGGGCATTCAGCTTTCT` in the records?
Found: -0.205

Lookup: Which value of PBM binding z-score has been reported for `TATCCTAGGTCATTCAGGGGCCAGTATAGAAAGC` in the records?
Found: 5.25

Lookup: Which value of PBM binding z-score has been reported for `CGTCATAGTTCAACTAAGGTAACGTAAAGCACGC` in the records?
Found: 3.55

Lookup: Which value of PBM binding z-score has been reported for `CCTACTGGGCCATCAGGTTATTGATATCAACGTT` in the records?
Found: 0.0751

Lookup: Which value of PBM binding z-score has been reported for `CCTTACGGGTCAAGAGGTTATAGCACGACGAGCG` in the records?
Found: 6.14

Lookup: Which value of PBM binding z-score has been reported for `AATACAGGGTCACTAGGCAAGAGTAGGTACGAAT` in the records?
Found: 6.39

Lookup: Which value of PBM binding z-score has been reported for `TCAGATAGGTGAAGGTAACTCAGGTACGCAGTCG` in the records?
Found: 0.487

Lookup: Which value of PBM binding z-score has been reported for `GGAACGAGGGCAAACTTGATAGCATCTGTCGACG` in the records?
Found: 1.14

Lookup: Which value of PBM binding z-score has been reported for `GCTGCTAGGTCAGGCTGGTCAGCTAACGGGTACG` in the records?
Found: 0.826

Lookup: Which value of PBM binding z-score has been reported for `CTCGAAAGGTCGTGCTCGGGTGAGTATACCAAAC` in the records?
Found: 5.24

Lookup: Which value of PBM binding z-score has been reported for `CCTTACGCGTCACTCCAGGTTATAGCATCGGAGT` in the records?
Found: 1.11

Lookup: Which value of PBM binding z-score has been reported for `GCTATGAGTTGAAAGGGCAACCGAATGATTCTCG` in the records?
Found: 1.13

Lookup: Which value of PBM binding z-score has been reported for `TCTCGTTGGTCACGGAGGTCACACACGACGGGTA` in the records?
Found: 3.3

Lookup: Which value of PBM binding z-score has been reported for `GAAACGAGGGCAAAGTTGATAGCATCTGTCGACG` in the records?
Found: 1.38

Lookup: Which value of PBM binding z-score has been reported for `CCCTACGGGTCACGAGGTTATAGCACGACGAGCG` in the records?
Found: 6.43

Lookup: Which value of PBM binding z-score has been reported for `ACTAGTTGGTCTGCTGAGGTCACACACAATTCGG` in the records?
Found: 2.8

Lookup: Which value of PBM binding z-score has been reported for `GCTTGTAGATCAAGCTTAAGAAAGACTAAGCTAA` in the records?
Found: -0.441

Lookup: Which value of PBM binding z-score has been reported for `CTTACTGGGCCATCAGGTCATTGATATCAACGTT` in the records?
Found: 1.85

Lookup: Which value of PBM binding z-score has been reported for `AGAATGCGGTTATACGTAGATCAGGGAAGAAAGT` in the records?
Found: -0.295

* * *

# Test system: LXRb:RXRa (NR concentration 270 nM, RXRa partner concentration 90 nM)
# Assay name: PBM binding z-score (relative to random genomic background probes); higher = stronger binding; sequences stand for … in GC…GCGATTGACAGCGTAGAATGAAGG
Readout name: PBM binding z-score
I'd appreciate a reply containing only the number, no unit.

Lookup: Which value of PBM binding z-score has been reported for `ACTTACGGGTCAGCGAGGTTATAGCACGCGTATA` in the records?
Found: 3.41

Lookup: Which value of PBM binding z-score has been reported for `TCTTGTAGATCAACAGGAGGTTAAGAGAGATCGA` in the records?
Found: 0.527

Lookup: Which value of PBM binding z-score has been reported for `ACAGACAGGTGAGTGAATGTAACTCAGCTGGACG` in the records?
Found: -0.486

Lookup: Which value of PBM binding z-score has been reported for `CCTACTGGGCCAAAAAGGTCACTGATGCCGATAA` in the records?
Found: 3.63

Lookup: Which value of PBM binding z-score has been reported for `GCTATTAGTTGAACGGGCAACCGAATGATTCTCG` in the records?
Found: -0.485

Lookup: Which value of PBM binding z-score has been reported for `GCTAGCAGGCCATTTGGGTCACGCAATGACGGGC` in the records?
Found: 0.378

Lookup: Which value of PBM binding z-score has been reported for `GCTTGTAGATGAAGGTTAAGAAAGACTAAGCTAA` in the records?
Found: -0.0135

Lookup: Which value of PBM binding z-score has been reported for `GCATATGGGTAATACAAGGTGAAAGTCCGATTGT` in the records?
Found: 0.226

Lookup: Which value of PBM binding z-score has been reported for `CGTCCAAGGTCGGAGAGGTCAGTGAATGCCGAGT` in the records?
Found: 2.53

Lookup: Which value of PBM binding z-score has been reported for `GCTAGCAGGCCATTTGTGTCACTCAATGACGGGC` in the records?
Found: -1.03

Lookup: Which value of PBM binding z-score has been reported for `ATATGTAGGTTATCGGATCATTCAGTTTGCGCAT` in the records?
Found: 0.974

Lookup: Which value of PBM binding z-score has been reported for `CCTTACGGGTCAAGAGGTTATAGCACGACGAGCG` in the records?
Found: 3.63
